src = patent US20240360238A1

- SYSTEM TESTED: T1, purified human CD117 ectodomain (R&D Systems #332-SR) (human, UniProt P10721 26-524)
- T1 construct: extracellular domain; Bought protein; also called c-kit; purified recombinant human CD117 ectodomain
- T1 sequence (P10721 26-524): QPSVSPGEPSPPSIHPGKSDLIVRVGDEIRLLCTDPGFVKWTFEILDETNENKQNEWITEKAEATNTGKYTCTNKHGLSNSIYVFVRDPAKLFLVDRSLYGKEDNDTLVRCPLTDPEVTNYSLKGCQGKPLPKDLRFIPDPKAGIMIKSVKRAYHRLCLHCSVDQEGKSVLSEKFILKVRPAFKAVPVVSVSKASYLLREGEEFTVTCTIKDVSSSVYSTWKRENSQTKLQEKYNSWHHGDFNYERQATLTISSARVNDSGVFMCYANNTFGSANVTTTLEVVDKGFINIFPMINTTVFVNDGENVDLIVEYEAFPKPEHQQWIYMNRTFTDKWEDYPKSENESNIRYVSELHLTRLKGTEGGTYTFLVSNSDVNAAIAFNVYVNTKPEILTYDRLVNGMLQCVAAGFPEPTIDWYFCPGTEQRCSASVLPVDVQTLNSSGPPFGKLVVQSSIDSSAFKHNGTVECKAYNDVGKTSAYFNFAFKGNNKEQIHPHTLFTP
- PROTOCOL TEXT: BLI, purified IgG on sensor, soluble ectodomain; apparent monovalent
Assign met to entries whose kon meets or exceeds 300000 M⁻¹ s⁻¹; assign not met to the rest.

Say whether HC-6/LC-6 (Ab6) (antibody, IgG1, V domains shown, Purified IgG; also called 006) VH: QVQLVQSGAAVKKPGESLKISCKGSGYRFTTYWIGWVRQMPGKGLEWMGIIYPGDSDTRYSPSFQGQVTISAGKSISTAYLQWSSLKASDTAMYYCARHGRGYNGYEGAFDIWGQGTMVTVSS VL: AIRMTQSPSSLSASVGDRVIIACRASQGIGGALAWYQQKPGNAPKVLVYDASTLESGVPSRFSGGGSGTDFTLTISSLQPEDFATYYCQQFNSYPLTFGGGTKLEIK shows kon of 300000 M⁻¹ s⁻¹ or more.
met

Reported kon reaches at least 300000 M⁻¹ s⁻¹ for HC-5/LC-5 (Ab5) (antibody, IgG1, V domains shown, Purified IgG; also called 005) VH: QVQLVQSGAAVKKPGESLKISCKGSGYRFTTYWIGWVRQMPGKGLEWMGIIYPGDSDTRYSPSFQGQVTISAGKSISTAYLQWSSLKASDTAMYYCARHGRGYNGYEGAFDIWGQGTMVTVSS VL: NIQMTQSPSSLSASVGDRVTITCRASQAISDYLAWFQQKPGKAPKLLIYDASNLETGVPSRFSGSGSGTDFTLTISSLQPEDFATYYCQQLNSYPLTFGGGTKVEIK ?
met

hey, is kon for this one >= 300000 M⁻¹ s⁻¹? HC-14/LC-14 (Ab14) (antibody, IgG1, V domains shown, Purified IgG; also called 014) VH: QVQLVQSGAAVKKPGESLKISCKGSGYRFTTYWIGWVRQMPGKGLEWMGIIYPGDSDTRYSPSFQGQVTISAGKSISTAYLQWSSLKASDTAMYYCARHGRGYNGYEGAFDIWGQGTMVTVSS VL: DIQLTQSPSSLSASVGDRVTITCRASQGISSFLAWYQQKPGKAPKLLIYDASTLQSGVPSRFSGSASGTDFTLTISSLQPEDFATYYCQQLNGYPLTFGGGTKVEIK
not met

// inclusive: kon at least 300000 M⁻¹ s⁻¹? input: HC-27/LC-27 (Ab27) (antibody, IgG1, V domains shown, From rat immunization/hybridoma; purified IgG in BLI; also called 027) VH: EVQLVESGGGLVQPGRSMKLSCKASGFTFSNYDMAWVRQAPTRGLEWVASISYDGITAYYRDSVKGRFTISRENAKSTLYLQLVSLRSEDTATYYCTTEGGYVYSGPHYFDYWGQGVMVTVSS VL: DIQMTQSPSSMSVSLGDTVTITCRASQDVGIFVNWFQQKPGRSPRRMIYRATNLADGVPSRFSGSRSGSDYSLTISSLESEDVADYHCLQYDEFPRTFGGGTKLELK
met
